SYSTEM_TESTED: BRG1 (Homo sapiens)
Construct: either BRM primary antibody (Cell signaling Cat #11966) or BRG primary antibody (Abcam, ab 110641); endogenous in cells; host or cells: SW1573
ASSAY_EXPLANATION: Immunofluorescence assay for BRG1 degradation in SW1573 cells
Format: cell-based
STUDY_CONDITIONS: SW1573, 20 h, 20 hours incubation, normalized to a known degrader control, read-out: BRG1 IF Degradation Sinf (%)
OBSERVATION_TYPE: Dmax

CN1C[C@@H]2C[C@H]1CN2CC#Cc1cc(N2C3CCC2CN(c2cc(-c4ccccc4O)nnc2N)C3)ccn1 [Compound 164] ... 0 to 30%
Nc1nnc(-c2ccccc2O)cc1N1CC2CCC(C1)N2c1cnnc(C#CCN2CCCCCC2)c1 [Compound 246] ... 71 to 120%
Nc1nnc(-c2ccccc2O)cc1N1CC2CCC(C1)N2c1ccnc(C#CCN2CCC(F)(F)C2)c1 [Compound 43] ... 0 to 30%

Task: Tell me its Dmax given N#Cc1ccc(C2CN(CC#Cc3cc(N4C5CCC4CN(c4cc(-c6ccccc6O)nnc4N)C5)ccn3)C2)cc1 [Compound 237] as the entry.
Output: 30 to 70%

Task: Tell me its Dmax given Nc1nnc(-c2ccccc2O)cc1N1CC2CCC(C1)N2c1ccnc(C#CCN2CCC23CCCOC3)c1 (stereo not drawn) [Compound 100] as the entry.
Output: 30 to 70%

Task: Tell me its Dmax given Nc1nnc(-c2ccccc2O)cc1N1CC2CCC(C1)N2c1ccnc(C#CCN2CCC(O)CC2)c1 [Compound 71] as the entry.
Output: 30 to 70%

Task: Tell me its Dmax given CC1CCCN(CC#Cc2cc(N3C4CCC3CN(c3cc(-c5ccccc5O)nnc3N)C4)ccn2)CC1 (stereo not drawn) [Compound 200] as the entry.
Output: 71 to 120%

Task: Tell me its Dmax given Nc1nnc(-c2ccccc2O)cc1N1CC2(CN(c3ccnc(C#CCN4CCCCCC4)c3)C2)C1 [Compound 251] as the entry.
Output: 30 to 70%

Task: Tell me its Dmax given COC1(C)CN(CC#Cc2cc(N3C4CCC3CN(c3cc(-c5ccccc5O)nnc3N)C4)ccn2)C1 [Compound 169] as the entry.
Output: 30 to 70%

Task: Tell me its Dmax given Nc1nnc(-c2ccccc2O)cc1N1CC2CCC(C1)N2c1ccnc(C#CCN2CCCCC23CC3)c1 [Compound 153] as the entry.
Output: 0 to 30%

Task: Tell me its Dmax given Nc1nnc(-c2ccccc2O)cc1N1CC2CCC(C1)N2c1ccnc(C#CCN2CCCC(C(F)(F)F)CC2)c1 (stereo not drawn) [Compound 209] as the entry.
Output: 30 to 70%

Task: Tell me its Dmax given Nc1nnc(-c2ccccc2O)cc1N1CC2CCC(C1)N2c1ccnc(C#CCN2CC3(CCOCC3)C2)c1 [Compound 49] as the entry.
Output: 30 to 70%

Task: Tell me its Dmax given Nc1nnc(-c2ccccc2O)cc1N1CC2CCC(C1)N2c1ccnc(C#CCCN2CCNCC2)c1 [Compound 1] as the entry.
Output: 71 to 120%

Task: Tell me its Dmax given Nc1nnc(-c2ccccc2O)cc1N1CC2CCC(C1)N2c1ccnc(C#CCN2CC3CCCC2C3)c1 (stereo not drawn) [Compound 125] as the entry.
Output: 30 to 70%

Task: Tell me its Dmax given COC(=O)C1CN(CC#Cc2cc(N3C4CCC3CN(c3cc(-c5ccccc5O)nnc3N)C4)ccn2)C1 [Compound 225] as the entry.
Output: 0 to 30%

###

# DC50 listing for each entry below
SYSTEM_TESTED: BRM (Homo sapiens)
ASSAY_EXPLANATION: Immunofluorescence assay for BRM degradation in SW1573 cells
Format: cell-based
Set-up: treated overnight at 4° C. with either BRM primary antibody (Cell signaling Cat #11966) or BRG primary antibody; endogenous in cells; host or cells: SW1573
STUDY_CONDITIONS: 20 hours incubation, immunofluorescence mean nuclear signal, read-out: BRM IF Degradation IC50

Below are worked cases with known answers.
CC1(C)CCN1CC#Cc1cc(N2C3CCC2CN(c2cc(-c4ccccc4O)nnc2N)C3)ccn1 ... < 10 nM
CC1CCCN(CC#Cc2cc(N3C4CCC3CN(c3cc(-c5ccccc5O)nnc3N)C4)ccn2)CC1C (stereo not drawn) ... < 10 nM
COC1CN(CC#Cc2cc(N3C4CCC3CN(c3cc(-c5ccccc5O)nnc3N)C4)ccn2)C1 ... 10 to 100 nM
CS(=O)(=O)C1CN(CC#Cc2cc(N3C4CCC3CN(c3cc(-c5ccccc5O)nnc3N)C4)ccn2)C1 ... > 100 nM

Next item in the queue.
Task: Tell me its DC50 given COC(=O)C1CN(CC#Cc2cc(N3C4CCC3CN(c3cc(-c5ccccc5O)nnc3N)C4)ccn2)C1 as the entry.
Output: 10 to 100 nM

###

SYSTEM_TESTED: BRG1 (Homo sapiens, UniProt P51532)
Construct: either BRM primary antibody (Cell signaling Cat #11966) or BRG primary antibody (Abcam, ab 110641); endogenous in cells; host or cells: SW1573
Sequence (P51532 whole entry): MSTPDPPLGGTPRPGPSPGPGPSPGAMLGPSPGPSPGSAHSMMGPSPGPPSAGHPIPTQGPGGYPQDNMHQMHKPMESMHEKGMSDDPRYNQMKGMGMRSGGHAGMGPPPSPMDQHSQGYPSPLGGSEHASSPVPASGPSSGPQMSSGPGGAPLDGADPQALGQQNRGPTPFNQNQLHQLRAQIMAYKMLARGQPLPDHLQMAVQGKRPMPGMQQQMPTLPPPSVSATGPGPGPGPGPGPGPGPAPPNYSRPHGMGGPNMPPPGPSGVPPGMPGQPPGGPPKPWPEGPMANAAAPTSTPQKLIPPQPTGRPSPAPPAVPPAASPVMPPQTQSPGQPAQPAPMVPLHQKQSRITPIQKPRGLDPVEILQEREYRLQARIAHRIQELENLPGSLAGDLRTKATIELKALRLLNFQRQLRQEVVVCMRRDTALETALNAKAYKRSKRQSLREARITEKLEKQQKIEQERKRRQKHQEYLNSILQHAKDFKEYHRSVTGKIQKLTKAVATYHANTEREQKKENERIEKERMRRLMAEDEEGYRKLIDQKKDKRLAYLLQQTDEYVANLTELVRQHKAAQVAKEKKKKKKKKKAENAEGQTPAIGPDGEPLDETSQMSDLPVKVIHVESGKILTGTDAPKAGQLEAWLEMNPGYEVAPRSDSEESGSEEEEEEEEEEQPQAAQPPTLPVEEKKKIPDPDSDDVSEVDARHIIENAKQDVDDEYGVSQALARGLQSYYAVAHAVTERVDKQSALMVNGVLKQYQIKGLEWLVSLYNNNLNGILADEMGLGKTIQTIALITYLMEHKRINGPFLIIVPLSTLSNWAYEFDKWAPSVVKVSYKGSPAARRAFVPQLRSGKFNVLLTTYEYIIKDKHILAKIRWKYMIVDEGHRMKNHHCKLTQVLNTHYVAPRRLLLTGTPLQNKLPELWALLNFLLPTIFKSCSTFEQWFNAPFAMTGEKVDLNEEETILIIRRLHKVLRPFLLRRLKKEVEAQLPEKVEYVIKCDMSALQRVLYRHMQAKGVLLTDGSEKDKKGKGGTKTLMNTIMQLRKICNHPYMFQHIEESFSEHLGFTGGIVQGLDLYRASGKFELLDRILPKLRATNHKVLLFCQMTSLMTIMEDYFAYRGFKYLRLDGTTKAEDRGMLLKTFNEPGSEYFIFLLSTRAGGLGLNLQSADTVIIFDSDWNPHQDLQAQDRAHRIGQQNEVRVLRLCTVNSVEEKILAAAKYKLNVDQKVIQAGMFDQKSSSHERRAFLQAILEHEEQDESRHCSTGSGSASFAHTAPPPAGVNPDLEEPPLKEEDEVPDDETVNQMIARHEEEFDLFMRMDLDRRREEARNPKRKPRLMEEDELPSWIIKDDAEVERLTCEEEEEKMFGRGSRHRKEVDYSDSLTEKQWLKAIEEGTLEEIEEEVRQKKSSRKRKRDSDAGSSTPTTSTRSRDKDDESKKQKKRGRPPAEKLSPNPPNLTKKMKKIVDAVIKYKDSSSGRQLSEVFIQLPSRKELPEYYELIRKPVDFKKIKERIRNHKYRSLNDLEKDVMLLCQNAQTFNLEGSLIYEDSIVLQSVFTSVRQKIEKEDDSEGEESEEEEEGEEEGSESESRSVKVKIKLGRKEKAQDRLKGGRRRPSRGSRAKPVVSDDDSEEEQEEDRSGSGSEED
ASSAY_EXPLANATION: Immunofluorescence assay for BRG1 degradation in SW1573 cells
Format: cell-based
STUDY_CONDITIONS: 20 hours incubation, immunofluorescence mean nuclear signal, read-out: BRG1 IF Degradation IC50
Description: Example B-2: Immunofluorescence Assay for BRM and BRG1 Degraders SW1573 cells were seeded at 3000 cells/well in 384 well plates. The next day, compounds were added using an Echo dispenser. […] Harmony software (Perking Elmer) was used to quantify the mean nuclear signaling intensity of BRM or BRG signaling per cell in each well. Dose responses were determined from the concentration dependent response of mean nuclear signal intensity with data normalized to a known degrader control. […]
# DC50 listing for each entry below

Nc1nnc(-c2ccccc2O)cc1N1CC2CCC(C1)N2c1ccnc(C#CCN2CCCC(F)CC2)c1 (stereo not shown) [Compound 193] ... < 0.01 µM
Nc1nnc(-c2ccccc2O)cc1N1CC2CCC(C1)N2c1ccnc(C#CCN2CCCC23CCC3)c1 [Compound 106] ... < 0.01 µM

Task: Enter recorded DC50 with BRG1 (Homo sapiens, UniProt P51532) for Nc1nnc(-c2ccccc2O)cc1N1CC2CCC(C1)N2c1ccnc(C#CCN2CCC23CCOCC3)c1 [Compound 159] here.
Output: < 0.01 µM

Task: Enter recorded DC50 with BRG1 (Homo sapiens, UniProt P51532) for Nc1nnc(-c2ccccc2O)cc1N1CC2CCC(C1)N2c1ccnc(C#CCN2CC3(C2)C(CF)CCS3(=O)=O)c1 (stereo not shown) [Compound 177] here.
Output: 0.01 to 0.1 µM

###

SYSTEM_TESTED: BRG1 (Homo sapiens)
Construct: either BRM primary antibody (Cell signaling Cat #11966) or BRG primary antibody (Abcam, ab 110641); endogenous in cells; host or cells: SW1573
ASSAY_EXPLANATION: Immunofluorescence assay for BRG1 degradation in SW1573 cells
Type: cell-based
STUDY_CONDITIONS: SW1573, 20 h, 20 hours incubation, normalized to a known degrader control, read-out: BRG1 IF Degradation Sinf (%)
OBSERVATION_TYPE: Dmax

Below are worked cases with known answers.
Nc1nnc(-c2ccccc2O)cc1N1CC2CCC(C1)N2c1ccnc(C#CCOCCO)c1 ... 0 to 30%
Nc1nnc(-c2ccccc2O)cc1N1CC2CCC(C1)N2c1ccnc(C#CCN2CC(Oc3ccccc3)C2)c1 ... 30 to 70%
C[C@@H]1CN(CC#Cc2cc(N3C4CCC3CN(c3cc(-c5ccccc5O)nnc3N)C4)ccn2)C[C@H](C)O1 ... 0 to 30%
Nc1nnc(-c2ccccc2O)cc1N1CC2CCC(C1)N2c1ccnc(C#CCN2CCC3CCC2CC3)c1 ... 30 to 70%
Nc1nnc(-c2ccccc2O)cc1N1CCC2(CCN(c3ccnc(C#CCN4CCCCCC4)c3)C2)CC1 ... 30 to 70%

Task: Tell me its Dmax given Nc1nnc(-c2ccccc2O)cc1N1CC2CCC(C1)N2c1ccnc(C#CCN2CCCC23CCC3)c1 as the entry.
Output: 30 to 70%

Task: Tell me its Dmax given Nc1nnc(-c2ccccc2O)cc1N1CC2CCC(C1)N2c1ccnc(C#CCN2CC3(CCCOC3)C2)c1 as the entry.
Output: 30 to 70%

Task: Tell me its Dmax given Nc1nnc(-c2ccccc2O)cc1N1CC2CCC(C1)N2c1ccnc(C#CCN2CC(CC(F)F)C2)c1 as the entry.
Output: 30 to 70%

###

SYSTEM_TESTED: BRM (Homo sapiens, UniProt P51531)
Sequence (P51531 whole entry): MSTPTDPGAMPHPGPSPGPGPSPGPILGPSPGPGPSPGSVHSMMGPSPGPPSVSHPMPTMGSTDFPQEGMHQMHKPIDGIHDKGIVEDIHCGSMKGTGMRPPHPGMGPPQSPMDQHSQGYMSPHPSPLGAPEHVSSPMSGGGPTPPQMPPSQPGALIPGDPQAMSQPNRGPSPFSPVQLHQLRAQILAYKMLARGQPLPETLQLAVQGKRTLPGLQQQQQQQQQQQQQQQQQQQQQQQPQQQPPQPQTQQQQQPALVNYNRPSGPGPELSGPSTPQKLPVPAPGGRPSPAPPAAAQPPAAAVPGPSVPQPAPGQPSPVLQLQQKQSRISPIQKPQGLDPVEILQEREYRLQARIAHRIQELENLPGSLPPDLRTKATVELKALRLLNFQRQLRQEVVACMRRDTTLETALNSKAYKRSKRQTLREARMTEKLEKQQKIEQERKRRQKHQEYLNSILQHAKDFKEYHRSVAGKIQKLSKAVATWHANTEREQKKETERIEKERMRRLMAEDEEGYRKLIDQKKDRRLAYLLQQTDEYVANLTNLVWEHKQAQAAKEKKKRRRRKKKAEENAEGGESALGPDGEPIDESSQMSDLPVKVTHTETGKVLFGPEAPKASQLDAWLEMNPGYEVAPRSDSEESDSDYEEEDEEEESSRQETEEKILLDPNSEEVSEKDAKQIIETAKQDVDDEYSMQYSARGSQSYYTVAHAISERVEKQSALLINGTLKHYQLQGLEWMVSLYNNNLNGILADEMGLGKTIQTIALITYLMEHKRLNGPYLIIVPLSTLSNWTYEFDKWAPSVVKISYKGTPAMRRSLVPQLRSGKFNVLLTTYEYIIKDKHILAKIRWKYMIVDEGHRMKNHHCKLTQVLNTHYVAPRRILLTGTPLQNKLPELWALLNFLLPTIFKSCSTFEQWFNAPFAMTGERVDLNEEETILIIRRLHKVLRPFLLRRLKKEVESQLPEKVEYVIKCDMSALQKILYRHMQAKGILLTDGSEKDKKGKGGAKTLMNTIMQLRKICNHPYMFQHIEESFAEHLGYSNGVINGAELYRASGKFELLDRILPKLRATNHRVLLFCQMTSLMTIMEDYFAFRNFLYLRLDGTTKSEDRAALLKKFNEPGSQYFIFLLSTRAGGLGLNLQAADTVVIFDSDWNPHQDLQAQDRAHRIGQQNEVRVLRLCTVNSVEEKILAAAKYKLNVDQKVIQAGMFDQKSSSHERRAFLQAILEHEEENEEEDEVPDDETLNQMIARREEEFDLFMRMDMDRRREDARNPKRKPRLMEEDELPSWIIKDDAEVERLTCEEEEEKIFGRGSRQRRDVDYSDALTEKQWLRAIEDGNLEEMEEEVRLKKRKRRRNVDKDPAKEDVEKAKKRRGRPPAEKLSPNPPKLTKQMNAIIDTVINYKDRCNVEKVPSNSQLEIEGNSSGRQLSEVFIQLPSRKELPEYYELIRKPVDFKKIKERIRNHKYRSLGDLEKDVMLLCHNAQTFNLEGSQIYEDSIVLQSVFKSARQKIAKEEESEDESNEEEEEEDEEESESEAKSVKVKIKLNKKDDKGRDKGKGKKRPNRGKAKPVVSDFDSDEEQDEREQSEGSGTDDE
ASSAY_EXPLANATION: Immunofluorescence assay for BRM degradation in SW1573 cells
Assay type: cell-based
Design: treated overnight at 4° C. with either BRM primary antibody (Cell signaling Cat #11966) or BRG primary antibody; endogenous in cells; host or cells: SW1573
STUDY_CONDITIONS: 20 hours incubation, immunofluorescence mean nuclear signal, read-out: BRM IF Degradation IC50
# DC50 listing for each entry below

Below are worked cases with known answers.
Nc1nnc(-c2ccccc2O)cc1N1CC2CCC(C1)N2c1ccnc(C#CCN2CCOC3(CCC3)C2)c1 ... 10 to 100 nM
Nc1nnc(-c2ccccc2O)cc1N1CC2CCC(C1)N2c1ccnc(C#CCNC(=O)C2CCNCC2)c1 ... > 100 nM
Nc1nnc(-c2ccccc2O)cc1N1CC2CCC(C1)N2c1ccnc(C#CCN2CC(C(F)F)C2)c1 ... < 10 nM

Next item in the queue.
Task: Tell me its DC50 given Nc1nnc(-c2ccccc2O)cc1N1CC2CCC(C1)N2c1ccnc(C#CCN2CC(O)C2)c1 [Compound 142] as the entry.
Output: 10 to 100 nM
